B1: E3 ubiquitin-protein ligase TRIM36, residues 208 to 252; numbered along this chain, Q9NQ86 (parent)
chain: KILMCPEHETERINMYCELCRRPVCHLCKLGGNHANHRVTTMSSA

Variants of: B1
Assay: abundance fitness (aPCA) (normalised: wild type 0, dead -1); higher = more abundant; growth selection in yeast, the domain comes from the species named
Conditions: Homo sapiens
Consider the following variants and their measured abundance fitness readings.

Please review the entries below; each comes with its answer.
sequence_entry=KILMCPEHETERINMYCELCRRPVCHLCKLGWNHANHRVTTMSSA reading=-0.297
sequence_entry=KILMCPEHETERINMYCELCRRPVCHLCKLGGNFANHRVTTMSSA reading=-0.614
sequence_entry=KILMCPEHETERINMYCELCRRPVCHLCKLGSNHANHRVTTMSSA reading=-0.045
sequence_entry=KILMCPEHETERINMYCELCRRPVCHLCPLGGNHANHRVTTMSSA reading=-0.043
sequence_entry=KILMCPEHETERINMYCELCRRPVNHLCKLGGNHANHRVTTMSSA reading=-0.5

Exam item: Entry under review: `KILMCPEHETERINMYCELCRRPVCHLCKLGGPHANHRVTTMSSA` . Reported abundance fitness?
Marked response: 0.092

Exam item: Moving on to `KILMCPEHETERINMYRELCRRPVCHLCKLGGNHANHRVTTMSSA`
Marked response: -0.909

Exam item: Moving on to `KILMCPEHETERINMTCELCRRPVCHLCKLGGNHANHRVTTMSSA`
Marked response: 0.284

Exam item: Moving on to `KILMCPEHETERINMYCELCSRPVCHLCKLGGNHANHRVTTMSSA`
Marked response: -0.002

Exam item: Moving on to `KILMCPEHETERINMYCRLCRRPVCHLCKLGGNHANHRVTTMSSA`
Marked response: -0.385

Exam item: Moving on to `KILMCPEHETERINMYCELCRRPVCHQCKLGGNHANHRVTTMSSA`
Marked response: 0.019

Exam item: Moving on to `KILMCPEHETERINMYCELCRRPPCHLCKLGGNHANHRVTTMSSA`
Marked response: -0.501

Exam item: Moving on to `KILMCPEHETERINMYCELCRRCVCHLCKLGGNHANHRVTTMSSA`
Marked response: -0.2
